- protocol: Plasma protein binding in rat
Item-by-item account of fraction unbound
Please give only the number in your answer, with no unit.

Please review the following examples before continuing.
Give fraction unbound for O=C(Nc1nc2cccc(-c3ccc(CN4CCOCC4)cc3)n2n1)C1CC1
0.29

Indicate the recorded fraction unbound value for this molecule: O=C(NCCc1ccn(-c2ccccc2)n1)c1ccc(-c2cccc3nc(NC(=O)C4CC4)nn23)cc1
0.01

Input O=C(Nc1nc2cccc(-c3ccc(CNC(=O)C(F)(F)F)cc3)n2n1)C1CC1 , output reported fraction unbound.
0.17

Give a short answer stating reported fraction unbound for O=C(Nc1nc2cccc(-c3ccc(CN4CCS(=O)(=O)CC4)cc3)n2n1)C1CC1 .
0.525

Using known records, supply fraction unbound for N#CCc1ccccc1NCc1ccc(-c2cccc3nc(NC(=O)C4CC4)nn23)cc1
0.01

Query fraction unbound for O=C(Nc1nc2cccc(-c3ccc(CN4CCC(F)(F)CC4)cc3)n2n1)C1CC1
0.3

Please turn your attention to the following entry.
For the molecule O=C(Nc1nc2cccc(-c3ccc(NS(=O)(=O)C4CC4)cc3)n2n1)C1CC1 , give its measured fraction unbound value.
0.1

====

- protocol: AUC (0 to infinity) in rat at 1 mg/kg, iv
- Type: ADME, organism-based
- Design: time infinity, dose 1 mg/kg, route intravenous
- conditions used: plasma
reported property: AUC(0-inf) (ng·h/mL)
Reply with just the number (in ng·h/mL).

Give reported AUC(0-inf) value for O=C(Nc1nc2cccc(-c3ccc(CN4CCOCC4)cc3)n2n1)C1CC1
470

--- query ---
Input O=C(Nc1nc2cccc(-c3ccc(CN4CCS(=O)(=O)CC4)cc3)n2n1)C1CC1 , output reported AUC(0-inf).
739

====

- subject of test: Mitogen-activated protein kinase 14 (Homo sapiens, UniProt Q16539)
- Sequence (Q16539 whole entry): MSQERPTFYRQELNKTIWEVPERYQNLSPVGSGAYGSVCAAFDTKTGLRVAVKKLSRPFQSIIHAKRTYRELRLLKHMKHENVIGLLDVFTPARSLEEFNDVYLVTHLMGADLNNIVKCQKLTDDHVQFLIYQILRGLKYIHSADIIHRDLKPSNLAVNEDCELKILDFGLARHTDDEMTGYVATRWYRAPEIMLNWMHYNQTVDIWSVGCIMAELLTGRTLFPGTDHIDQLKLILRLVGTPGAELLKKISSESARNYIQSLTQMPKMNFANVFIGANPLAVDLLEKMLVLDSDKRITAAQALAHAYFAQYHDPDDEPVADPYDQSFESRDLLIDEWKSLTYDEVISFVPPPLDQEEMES
- protocol: Inhibition of p38alpha (unknown origin)
pIC50: −log10 of the molar value.
reported property: pIC50

Please look at COc1ccc(-c2cccc3nc(NC(=O)C4CC4)nn23)cc1 and tell me its recorded pIC50 on Mitogen-activated protein kinase 14 (Homo sapiens, UniProt Q16539).
< 5.00

====

- Organism: Homo sapiens
- protocol: Selectivity index, ratio of IC50 for human recombinant JAK2 to IC50 for human recombinant JAK1
Label Condition met when Ratio IC50 is at or above 2; otherwise label Condition not met.

Has CCOc1ccc(-c2cccn3nc(NC(=O)C4CC4)nc23)cc1 a recorded Ratio IC50 greater than or equal to 2?
Condition met

Decide: is the reported value of Ratio IC50 for COc1ccc(-c2cccc3nc(N)nn23)cc1 equal to or greater than 2?
Condition not met

Could you verify whether the entry O=C(Nc1nc2cccc(-c3ccc(Cl)cc3)n2n1)C1CC1 shows Ratio IC50 of no less than 2?
Condition met

Continuing:
Hello, I need to know if O=C(Nc1nc2cccc(-c3cccc(Cl)c3)n2n1)C1CC1 has measured Ratio IC50 not below 2. Thanks!
Condition not met

hey, is Ratio IC50 for this one >= 2? O=C(Nc1nc2cccc(-c3ccc(CNC(=O)C(F)(F)F)cc3)n2n1)C1CC1
Condition met

Dear colleague, could you confirm whether CCOc1ccc(-c2nccc3nc(NC(=O)C4CC4)nn23)cc1 has Ratio IC50 at or above 2?
Condition not met

Can O=C(Nc1nc2cccc(-c3cn[nH]c3)n2n1)C1CC1 be said to have Ratio IC50 at or above 2?
Condition not met

Identify whether the reported Ratio IC50 of the following compound is 2 or greater: COc1ccc(-c2cccc3nc(Nc4ccc(NC(C)=O)cc4)nn23)cc1
Condition not met

Dear colleague, could you confirm whether O=C(Nc1nc2cccc(-c3ccccc3)n2n1)C1CC1 has Ratio IC50 at or above 2?
Condition met

Confirm if Ratio IC50 reported for the compound CCC(=O)Nc1nc2cccc(-c3ccc(OC)cc3)n2n1 is 2 or above.
Condition not met
